Test system: HT29 colon
procedure-text: NCI-60 one-dose screen, 48 h (100 = growth as untreated, 0 = no growth, -100 = all killed)
condition-description: 10 µM unless noted
Compounds without any hit were thinned out: in the full panel of roughly 83,000, 20% have a hit.
List of growth values.
Numbers only here, please. The scale is %.

compound	target-desc	readout-number
Cc1ccc(NC(=O)CCl)cc1Cl	HT29 colon	107
O=C(Nc1ccc(-n2cc(-c3ccncc3)c(-c3ccc(Cl)c(O)c3)n2)cc1)Nc1cc(C(F)(F)F)cc(C(F)(F)F)c1	HT29 colon	0.312
Cc1ccc([C@@H]2C[C@H](O)Cc3ccccc3N2)s1	HT29 colon	117
COc1cc2ncnc(Nc3ccc4c(cnn4C(=O)Nc4ccccc4)c3)c2cc1OC	HT29 colon	51.1

Fill in: growth of CC(C)(C)C(=O)CCCCCCCC/C=C/CCCC(O)c1ccco1 (stereo not given) is ___
107

Fill in: growth of CCOC(=O)c1ccc2n1CCCc1cnc(NC(C)=O)nc1-2 is ___
106

Fill in: growth of CCOC(=O)c1csc(-c2ccc(COC(=O)c3ccccc3)o2)n1 is ___
104

Fill in: growth of N#Cc1ccc(OCc2nc(N)nc(N)c2-c2ccc(Cl)c(Cl)c2)cc1 is ___
10.8

Fill in: growth of N#Cc1c2cccnc2c2nnc3cc(Cl)c(Cl)cc3n12 is ___
-50.6

Fill in: growth of Cc1[nH]n(C(=S)Nc2nc3cc(Cl)c(F)cc3s2)c(=O)c1N=Nc1ccc(F)c(Cl)c1 is ___
112

----------
Tested on: NCI-H226 lung
procedure-text: NCI-60 one-dose screen, 48 h (100 = growth as untreated, 0 = no growth, -100 = all killed)
condition-description: 10 µM unless noted
About 83,000 compounds went through this panel and 20% of them were active in at least one assay; those are over-represented in the sample as a whole.
quantity-kind: growth (%)
Numbers only here, please. The scale is %.

Examples with answers:
molecule	target-desc	growth / %
CC(=O)N(N=O)c1ccc([N+](=O)[O-])cc1Cl	NCI-H226 lung	68.3
Nc1cc(N)c2nc(NCCc3ccc(Cl)c(Cl)c3)cnc2c1	NCI-H226 lung	61.4
CCCCCCCCCC[N+](C)(C)C	NCI-H226 lung	45
CC[C@H](Nc1ncnc2nc[nH]c12)c1nc2cccc(NCc3ccc(C(=O)NO)o3)c2c(=O)n1-c1ccccc1	NCI-H226 lung	109
CC([C@H]1CCC2C3CCC4C[C@@H](N)CC[C@]4(C)C3CC[C@@]21C)N(C)C (stereo partly drawn)	NCI-H226 lung	112

Query the reported growth for NCI-H226 lung; item: [2H]c1nc(=Nc2cc(NC(=O)C=C)c(N(C)CCN(C)C)cc2OC)[nH]c(-c2cn(C([2H])([2H])[2H])c3ccccc23)c1[2H]
75.2

Query the reported growth for NCI-H226 lung; item: COc1ccc(Nc2c3ccccc3nc3ccccc23)cc1
6.97

Query the reported growth for NCI-H226 lung; item: COc1ccc(OC)c(Cn2cc3c(c2-c2ccccc2)CCc2cnoc2-3)c1
78.8

Query the reported growth for NCI-H226 lung; item: O=C(Nc1ccc(Cl)c(Cl)c1)O/N=C\c1c(Cl)ccc([N+](=O)[O-])c1Cl
58.4

Query the reported growth for NCI-H226 lung; item: c1ccc(Nc2ccccn2)cc1
130
